The origin of these recorded values is patent US20140187771A1.

test: Glass transition temperature (Tg) by modulated differential scanning calorimetry (mDSC); type: physicochemical; settings: mDSC, second heating cycle (intrinsic Tg in dry state); precipitated salts of Compound 1
Known Tg (° C.) Second heating of a selection of molecules
# output: bare number, implied unit °C

See these solved cases before continuing.
molecule=CC(C)c1nc(CN(C)C(=O)N[C@@H](CCN2CCOCC2)C(=O)N[C@H](CC[C@H](Cc2ccccc2)NC(=O)OCc2cncs2)Cc2ccccc2)cs1.CCS(=O)(=O)O unit_tag=°C result=37
molecule="CC(C)c1nc(CN(C)C(=O)NC(CCN2CCOCC2)C(=O)NC(CCC(Cc2ccccc2)NC(=O)OCc2cncs2)Cc2ccccc2)cs1.O=C(O)c1ccc2ccccc2c1O (stereo not shown) [xinafoate]" unit_tag=°C result=51
molecule="O=C(O)CCC(=O)C(=O)O [ketoglutarate]" unit_tag=°C result=42

Query block: Tg (° C.) Second heating for CC(C)c1nc(CN(C)C(=O)N[C@@H](CCN2CCOCC2)C(=O)N[C@H](CC[C@H](Cc2ccccc2)NC(=O)OCc2cncs2)Cc2ccccc2)cs1.Cl [hydrochloride] ?
Result block: 59
